Assay: Toxicity (cytotoxic action) in human T lymphocytes
Assay type: cell-based
Conditions: cem t lymphocytes, read-out: Toxicity CC50
ENDPOINT_NAME: CC50

COc1ccc(C(O)P(=O)(OC[C@@H]2CC[C@H](n3cc(C)c(=O)[nH]c3=O)O2)OC[C@@H]2CC[C@H](n3cc(C)c(=O)[nH]c3=O)O2)cc1 (some centres unmarked) :: > 20 µg/mL
Cc1cn([C@H]2CC[C@@H](COP(=O)(OC[C@@H]3CC[C@H](n4cc(C)c(=O)[nH]c4=O)O3)C(O)c3c(Cl)cccc3Cl)O2)c(=O)[nH]c1=O (some centres unmarked) :: > 20 µg/mL
Cc1ccc(C(O)P(=O)(OC[C@@H]2C=C[C@H](n3cc(C)c(=O)[nH]c3=O)O2)OC[C@@H]2C=C[C@H](n3cc(C)c(=O)[nH]c3=O)O2)cc1 (some centres unmarked) :: > 20 µg/mL

Please give measured CC50 of the following entry: Cc1cn([C@H]2C=C[C@@H](COP(=O)(OC[C@@H]3C=C[C@H](n4cc(C)c(=O)[nH]c4=O)O3)C(O)c3ccccc3)O2)c(=O)[nH]c1=O (some centres unmarked) > 100 µg/mL

Please give measured CC50 of the following entry: Cc1cn([C@H]2CC[C@@H](COP(=O)(OC[C@@H]3CC[C@H](n4cc(C)c(=O)[nH]c4=O)O3)C(O)c3ccc(C#N)cc3)O2)c(=O)[nH]c1=O (some centres unmarked) > 100 µg/mL

---

Tested on: HIV-2
Test: In-vitro anti HIV test, HIV-2, human T lymphocytes CEM/O
Format: cell-based, HIV-2 in human T lymphocytes (CEM/O)
Settings: Human immunodeficiency virus 2, T-lymphocyte; HIV-2, CEM/O cells; read-out: Antiviral activity EC50 CEM/O HIV-2
ENDPOINT_NAME: EC50
Quick note: unit goes after the number.

Example compounds with recorded EC50:
Cc1cn([C@H]2C=C[C@@H](COP(=O)(OC[C@@H]3C=C[C@H](n4cc(C)c(=O)[nH]c4=O)O3)C(O)c3ccccc3)O2)c(=O)[nH]c1=O (stereo partly drawn) :: 0.19 µg/mL
Cc1cn([C@H]2CC[C@@H](COP(=O)(OC[C@@H]3CC[C@H](n4cc(C)c(=O)[nH]c4=O)O3)C(O)c3ccccc3)O2)c(=O)[nH]c1=O (stereo partly drawn) :: 13.3 µg/mL
Cc1cn([C@H]2C=C[C@@H](COP(=O)(OC[C@@H]3C=C[C@H](n4cc(C)c(=O)[nH]c4=O)O3)C(O)c3ccc([N+](=O)[O-])cc3)O2)c(=O)[nH]c1=O (stereo partly drawn) :: 0.12 µg/mL
Cc1ccc(C(O)P(=O)(OC[C@@H]2C=C[C@H](n3cc(C)c(=O)[nH]c3=O)O2)OC[C@@H]2C=C[C@H](n3cc(C)c(=O)[nH]c3=O)O2)cc1 (stereo partly drawn) :: 0.33 µg/mL
Cc1cn([C@H]2C=C[C@@H](COP(=O)(OC[C@@H]3C=C[C@H](n4cc(C)c(=O)[nH]c4=O)O3)C(O)c3c(Cl)cccc3Cl)O2)c(=O)[nH]c1=O (stereo partly drawn) :: 0.12 µg/mL

# input for lookup
Please give measured EC50 of the following entry: Cc1cn([C@H]2CC[C@@H](COP(=O)(OC[C@@H]3CC[C@H](n4cc(C)c(=O)[nH]c4=O)O3)C(O)c3ccc(N(C)C)cc3)O2)c(=O)[nH]c1=O (stereo partly drawn) 7 µg/mL
